The reported numbers originate from PubChem BioAssay (NCI).

assay: NCI Yeast Anticancer Drug Screen. Data for the bub3 strain (AID 167); conditions: S. cerevisiae bub3 mutant strain, at 50.0 µM (retest, dose inferred, filed as 5.0)
Compounds without any hit were thinned out: in the full panel of roughly 79,000, 15% have a hit. The source made the active and inactive calls. Rule as the data show it: active = growth inhibition above about 70%; inactive = the rest.
Classes used: active, inactive

{"MOLECULE": "Nc1ncnc2c1ncn2CCCl", "ASSIGNED LABEL": "inactive"}
{"MOLECULE": "Clc1nc2nc(Cl)c(Cl)n2nc1Cl", "ASSIGNED LABEL": "inactive"}
{"MOLECULE": "O=C1C(CN(Cc2ccccc2)Cc2ccccc2)CCCC1CN(Cc1ccccc1)Cc1ccccc1 (configuration not stated)", "ASSIGNED LABEL": "inactive"}
{"MOLECULE": "NNc1ccc2ccccc2c1", "ASSIGNED LABEL": "active"}
{"MOLECULE": "OC(CF)(c1ccc(Cl)cc1)c1ccc(Cl)cc1", "ASSIGNED LABEL": "active"}
{"MOLECULE": "O=C(N/C=C/C=C/Sc1ccccc1)OCc1ccccc1", "ASSIGNED LABEL": "active"}
{"MOLECULE": "O=[N+]([O-])c1ccc(OCCN(Cc2ccccc2)Cc2ccccc2)c([N+](=O)[O-])c1", "ASSIGNED LABEL": "inactive"}
{"MOLECULE": "CC(=O)Nc1nc(N)c2ncn(C3OC(C(O)CO)C(O)C3O)c2n1 (configuration not stated)", "ASSIGNED LABEL": "inactive"}
{"MOLECULE": "O=C1OC(CN2CCOCC2)CN1/N=C/c1ccc([N+](=O)[O-])o1 (configuration not stated)", "ASSIGNED LABEL": "inactive"}
{"MOLECULE": "CC(=O)c1ccc2ccc3ccc(O)cc3c2c1", "ASSIGNED LABEL": "active"}
{"MOLECULE": "Cc1ccc(S(=O)(=O)NC2CCCCCCC2)cc1", "ASSIGNED LABEL": "active"}
{"MOLECULE": "O=[N+]([O-])c1c(Br)cc(Br)c2c1Nc1c(ccc(Cl)c1Cl)S2", "ASSIGNED LABEL": "active"}
